Data provenance: ChEMBL document CHEMBL2412955

Tested on: Moraxella catarrhalis
Assay: Antibacterial activity against Moraxella catarrhalis clinical isolate 138 after 18 hrs by NCCLS agar dilution method
Type: functional
Settings: clinical isolate 138, 18 h
For each entry below, report its MIC value.
Please reply with the bare figure in µg/mL and do not write the unit itself.

Quick check: MIC on Moraxella catarrhalis, item `O=C(NCC(=O)N1CCN(c2ccc(N3C[C@H](Cn4ccnn4)OC3=O)cc2F)CC1)c1cccs1` ?
8

Test system Moraxella catarrhalis; read-out MIC; what value for `Cc1cn(C[C@H]2CN(c3ccc(N4CCN(C(=O)CNC(=O)c5ccccc5)CC4)c(F)c3)C(=O)O2)nn1` ?
4

Any idea what MIC came out for `Cc1cn(C[C@H]2CN(c3ccc(N4CCN(C(=O)CNC(=O)c5cc([N+](=O)[O-])cc([N+](=O)[O-])c5)CC4)c(F)c3)C(=O)O2)nn1` on Moraxella catarrhalis?
1

Short answer please: MIC, Moraxella catarrhalis, entry `Cc1cn(C[C@H]2CN(c3ccc(N4CCN(C(=O)CNC(=O)c5cccnc5)CC4)c(F)c3)C(=O)O2)nn1`
4

Return MIC measured with Moraxella catarrhalis given this compound: `O=C(NCC(=O)N1CCN(c2ccc(N3C[C@H](Cn4ccnn4)OC3=O)cc2F)CC1)c1ccc([N+](=O)[O-])o1`
1

What measured MIC is associated with `Cc1cn(C[C@H]2CN(c3ccc(N4CCN(C(=O)CNC(=O)c5cccs5)CC4)c(F)c3)C(=O)O2)nn1` on Moraxella catarrhalis?
8

Record `O=C(NCC(=O)N1CCN(c2ccc(N3C[C@H](Cn4ccnn4)OC3=O)cc2F)CC1)c1cccnc1` : what is its MIC with Moraxella catarrhalis?
8
